Provenance of the data: patent US20220096653A1

For each of the binders below, state its pEC50.
- target: human cancer-specific MUC1 peptide (PTL 1) (human)
- assay explanation: ELISA on immobilised human cancer-specific MUC1 peptide, 4-parameter fit, duplicate (Example 6-2)
pEC50 is defined as minus the log10 of a concentration measured in mol/L.

Inquiry: Assign pEC50 to the following record: Ex-No 109, conjugate of Fab^5 (structure given only as drawing CHEM-US-00166) (Fab, V domains shown, labeling may sit on this chain; sites not stated; low molecular weight molecule (MW 1216) bound to the Fab, sites and chain not stated; 1-2 per Fab by MS; Gln 1 pyroglutamic acid as Fab^5 is defined in paragraph 370) VH: QVQLVQSGAEVKKPGASVKVSCKASGYTFTNYGLSWVRQAPGQGLEWMGENHPGSGIIYHNEKFRGRVTLTADRSTSTAYMELSSLRSEDTAVYYCARSSGTRGFDYWGQGTLVTVSS VL: DVVMTQTPLSLSVTPGQPASISCRSSQSIVHSNGNTYLEWYLQKPGQSPQLLIYRVSNRFSGVPDRFSGSGSGTDFTLKISRVEAEDVGVYYCFQGSHGPWTFGQGTKLEIKR
Reply text: 10.10

Inquiry: Find the measured pEC50 of Ex-No 105, conjugate of Fab^5 (structure given only as drawing CHEM-US-00163) (Fab, V domains shown, labeling may sit on this chain; sites not stated; low molecular weight molecule (MW 1190) bound to the Fab, sites and chain not stated; 1-3 per Fab by MS; Gln 1 pyroglutamic acid as Fab^5 is defined in paragraph 370) VH: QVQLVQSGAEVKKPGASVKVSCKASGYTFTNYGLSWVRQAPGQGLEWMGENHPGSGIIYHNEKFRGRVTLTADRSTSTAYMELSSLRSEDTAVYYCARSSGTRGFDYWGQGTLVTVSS VL: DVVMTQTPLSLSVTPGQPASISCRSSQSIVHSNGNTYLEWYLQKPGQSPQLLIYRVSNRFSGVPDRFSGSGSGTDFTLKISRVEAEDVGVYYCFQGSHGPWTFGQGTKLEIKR and report it.
Reply text: 9.96

Inquiry: Supply recorded pEC50 for [Gd/DOTA-NH-CH2-(1,4-Ph)-NH-C(═O)-Met-Ile-NH-(CH2)2-Z1(#S)]p-Fab^5 (Fab, V domains shown, labeling may sit on this chain; sites not stated; labeling portion (MW 1175) bound via 2-iminothiolane-treated amino groups of the Fab, sites and chain not stated; 1-3 per Fab by MS; Gln 1 pyroglutamic acid as Fab^5 is defined in paragraph 370) VH: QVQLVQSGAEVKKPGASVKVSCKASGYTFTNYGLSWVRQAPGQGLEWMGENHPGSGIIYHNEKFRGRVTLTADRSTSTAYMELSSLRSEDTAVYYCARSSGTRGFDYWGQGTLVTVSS VL: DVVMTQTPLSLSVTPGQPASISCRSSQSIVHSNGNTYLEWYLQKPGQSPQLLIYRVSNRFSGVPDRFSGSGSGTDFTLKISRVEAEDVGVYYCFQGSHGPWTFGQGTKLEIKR here.
Reply text: 10.05
